The origin of these recorded values is PubChem BioAssay AID1963827.

# Test system: 994946-033-R-J1-PDC complex spheroid viability;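 further: spheroids exposed to drugs for 7 days; 100% = DMSO vehicle treated spheroids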
# EXPERIMENT SUMMARY: Anticancer human tumor 994946-033-R-J1-PDC patient-derived melanoma cell line growth inhibition [POLQ]
# TEST CONDITIONS: second compound 0.316 µM; first compound 0.001 µM; stronger effect = lower value
Documented viability, T/C across a set of compounds
Output spec: scalar in %, unitless text.

As a guide, the following entries are already answered.
1. Cn1ncnc1[C@H]1c2n[nH]c(=O)c3cc(F)cc(c23)N[C@@H]1c1ccc(F)cc1 + COC1C(OC(N)=O)C(O)C(Oc2ccc3c(O)c(NC(=O)c4ccc(O)c(CC=C(C)C)c4)c(=O)oc3c2C)OC1(C)C :: 101
2. CC[C@@]1(O)C(=O)OCc2c1cc1n(c2=O)Cc2cc3c(CN(C)C)c(O)ccc3nc2-1 + Nc1ccc(C#CCN(C(=O)Cc2ncc(C(F)(F)F)cc2C(F)(F)F)c2ccc(F)cc2)nn1 :: 109

I am curious: what viability, T/C value has been reported for CC[C@@]1(O)C(=O)OCc2c1cc1n(c2=O)Cc2cc3c(CN(C)C)c(O)ccc3nc2-1 + COC1C(OC(N)=O)C(O)C(Oc2ccc3c(O)c(NC(=O)c4ccc(O)c(CC=C(C)C)c4)c(=O)oc3c2C)OC1(C)C ?
99.6
